All figures here come from ChEMBL document CHEMBL5058577.

Catalogue of Population Apoptotic (%) readings, one per entry.
Tested on: HEK-293T
Test Description: Multiplex assay against HEK293T
Assay type: toxicity, cell-based
Setup Conditions: human, 24 h, 1 µM, compound concentration 1 uM, replicate 1
Endpoint Label: Population Apoptotic (%)

Compound | Tested Target | Unit Text | Assay Result
C[C@H](NC(=O)c1c(C(F)F)nn(C)c1Oc1cccc(C(F)(F)F)c1)c1ccc(C(=O)O)cc1 [PALUPIPRANT] | HEK-293T | % | 36
Cl.Clc1ccc2nsnc2c1NC1=NCCN1 [TIZANIDINE HYDROCHLORIDE] | HEK-293T | % | 32
O=C(O)c1cc2ccccc2c(Cc2c(O)c(C(=O)O)cc3ccccc23)c1O [PAMOIC ACID] | HEK-293T | % | 29
N[C@@]1(C(=O)O)CO[C@H]2[C@H](C(=O)O)[C@H]21 [LY-379268] | HEK-293T | % | 30
CCCC(CCC)C(=O)O [VALPROIC ACID] | HEK-293T | % | 28
O=C(NCC(=O)N1CC[C@H](N[C@H]2CC[C@@](O)(c3ccc(-c4ncccn4)cn3)CC2)C1)c1cccc(C(F)(F)F)c1 [PF-4136309] | HEK-293T | % | 25
Cc1nc2ccc(Oc3ccc(F)cc3)cc2c(=O)n1C[C@H]1CCCN(C(C)C)C1.Cl | HEK-293T | % | 31
